System: Erysiphe graminis f sp. tritici
test_method_notes: Test G: wheat powdery mildew, preventive spray on wheat seedlings
experimental_parameters: 10 ppm test solution; 100 = 100% disease control, 0 = no control relative to controls
// reported Test G disease control rating per item
readout_label: Test G disease control rating (%)

molecule: OC(COc1ccc(Cl)cc1)(Cn1cncn1)C1=NOC(c2ccc(Cl)cc2)C1 (stereo not shown) [Compound 272]
quantitative_result: 99
--
molecule: CC(C)(C)C(O)(Cn1cncn1)C1=NOC(COc2ccc(Cl)cc2)C1 (single isomer, unassigned) [Compound 242]
quantitative_result: 68
--
molecule: CCC(C)(C)C(O)(Cn1cncn1)C1=NOC(COc2ccc(F)cc2)C1 (single isomer, unassigned) [Compound 249]
quantitative_result: 100
--
molecule: OC(Cn1cncn1)(C1=NOC(COc2ccc(Cl)cc2)C1)C1CCCCC1 (single isomer, unassigned) [Compound 265]
quantitative_result: 100
--
molecule: CC(C)CC(O)(Cn1cncn1)C1=NOC(COc2ccc(Cl)cc2)C1 (single isomer, unassigned) [Compound 267]
quantitative_result: 100
--
molecule: CC(C)(C)CC(O)(Cn1cncn1)C1=NOC(Cc2ccc(C(F)(F)F)cc2)C1 (single isomer, unassigned) [Compound 226]
quantitative_result: 99
--
molecule: CC(C)(C)CC(O)(Cn1cncn1)C1=NOC(COc2ccc(F)cc2)C1 (single isomer, unassigned) [Compound 244]
quantitative_result: 99
